# PROTOCOL_DESCRIPTION: NCI Yeast Anticancer Drug Screen. Data for the sgs1 mgt1 strain (AID 161)
# CONDITION_DESCRIPTION: S. cerevisiae sgs1 mgt1 strain, at 50.0 µM (retest, dose inferred, filed as 5.0), active compounds read high
This is part of a sample that, as a whole, favours compounds with a hit. Of some 79,000 tested, about 15% had one in any assay.
Note: every record was labeled by where its growth inhibition sits among bottom: < 20%; middle: ≥ 20% and < 80%; top: ≥ 80%

Query string: Textbook exercise: identify the category of the compound given here, Nc1ccc2c(c1)[nH]c(=O)c1ccc(Cl)cc12 , according to its measured value.
Result string: top

Query string: Textbook exercise: identify the category of the compound given here, CC(=O)OC1COC(n2nnc(C#N)c2C#N)C(OC(C)=O)C1OC(C)=O (stereo not drawn) , according to its measured value.
Result string: bottom

Query string: Textbook exercise: identify the category of the compound given here, CCCCc1ccc(Nc2nc(N)c3[nH]cnc3n2)cc1 , according to its measured value.
Result string: middle

Query string: Textbook exercise: identify the category of the compound given here, CCCC/C=C1\CCC(CN2CCCCC2)C1=O (stereo not drawn) , according to its measured value.
Result string: top

Query string: Textbook exercise: identify the category of the compound given here, O=C1c2cc(F)ccc2-c2c(F)cc(F)c(F)c21 , according to its measured value.
Result string: bottom

Query string: Textbook exercise: identify the category of the compound given here, O=C1c2ccc(O)c(O)c2C(=O)c2c(O)ccc(O)c21 , according to its measured value.
Result string: top

Query string: Textbook exercise: identify the category of the compound given here, Cc1ccc(NCCN(C)C)c2c(=O)c3c(O)cccc3sc12 , according to its measured value.
Result string: top

Query string: Textbook exercise: identify the category of the compound given here, Cc1cc([N+](=O)[O-])ccc1NC(=O)N(C)CCOC(=O)Nc1ccccc1 , according to its measured value.
Result string: top

Query string: Textbook exercise: identify the category of the compound given here, Nc1nc(=O)[nH]c([O-])c1N=O.Nc1nc(=O)[nH]c([O-])c1N=O.[Ag+].[Ag+] , according to its measured value.
Result string: bottom

Query string: Textbook exercise: identify the category of the compound given here, O=C1C(=C2C(=O)c3ccccc3[N+]2=O)N([O-])c2ccccc21 , according to its measured value.
Result string: middle

Query string: Textbook exercise: identify the category of the compound given here, C=CS(=O)(=O)c1ccc2ccccc2c1 , according to its measured value.
Result string: top

Query string: Textbook exercise: identify the category of the compound given here, OCCc1cccc2ccc3ccccc3c12 , according to its measured value.
Result string: middle

Query string: Textbook exercise: identify the category of the compound given here, OC(CCN1CCOCC1)c1ccc(Sc2ccccc2)cc1 (stereo not drawn) , according to its measured value.
Result string: middle

Query string: Textbook exercise: identify the category of the compound given here, OC(c1ccccc1)(c1ccccc1)c1ccc[cH-]1.OC(c1ccccc1)(c1ccccc1)c1ccc[cH-]1.[Fe+2] , according to its measured value.
Result string: bottom

Query string: Textbook exercise: identify the category of the compound given here, [N-]=[N+]=Nc1c(C=O)c(=O)n(-c2ccccc2)c2ccccc12 , according to its measured value.
Result string: middle

Query string: Textbook exercise: identify the category of the compound given here, OCc1ccc2c(c1)CC1(C2)Cc2cc3c(cc2C1O)CCC3 (stereo not drawn) , according to its measured value.
Result string: middle

Query string: Textbook exercise: identify the category of the compound given here, CC(C)C(Cl)CC/C(CBr)=C(\Cl)CCl (stereo not drawn) , according to its measured value.
Result string: top

Query string: Textbook exercise: identify the category of the compound given here, Cc1cc(N/N=C/c2ccc([N+](=O)[O-])o2)c2cc3c(cc2n1)OCO3 , according to its measured value.
Result string: top

Query string: Textbook exercise: identify the category of the compound given here, CCCC[N-]CC(O)C[NH-].O=C(O)CC(=O)O.[Pt+2] (stereo not drawn) , according to its measured value.
Result string: bottom

Query string: Textbook exercise: identify the category of the compound given here, CC1(CO)CCCC2(C)C3=C(CCCC3)CCC12 (stereo not drawn) , according to its measured value.
Result string: top

Query string: Textbook exercise: identify the category of the compound given here, CCCCCCCCCCC(C(=O)OCCCC)P(=O)(OCCCC)OCCCC (stereo not drawn) , according to its measured value.
Result string: top

Query string: Textbook exercise: identify the category of the compound given here, CCCCCCCCC1OC1CCCCCCCC(=O)OCC1CO1 (stereo not drawn) , according to its measured value.
Result string: bottom

Query string: Textbook exercise: identify the category of the compound given here, Nc1nc(=O)n(C2OC(CO)C(O)C2O)cc1[N+](=O)[O-] (stereo not drawn) , according to its measured value.
Result string: bottom

Query string: Textbook exercise: identify the category of the compound given here, CCN(CC)CC(O)c1c(-c2ccccc2)c(-c2ccccc2)c2n1CCC2 (stereo not drawn) , according to its measured value.
Result string: top

Query string: Textbook exercise: identify the category of the compound given here, COC(=O)C(=O)C(C(=O)c1ccc(F)cc1)c1nc2n(c1O)C(=N)N=N2 (stereo not drawn) , according to its measured value.
Result string: middle

Query string: Textbook exercise: identify the category of the compound given here, Cc1cc(O)cc2c1c(=O)c1ccccc1n2C , according to its measured value.
Result string: bottom

Query string: Textbook exercise: identify the category of the compound given here, CCC(=O)c1cc2ccccc2c2ccccc12 , according to its measured value.
Result string: middle

Query string: Textbook exercise: identify the category of the compound given here, Cn1nc(N)c2cccnc21 , according to its measured value.
Result string: bottom

Query string: Textbook exercise: identify the category of the compound given here, ON(C(=Nc1ccc(Cl)cc1)c1ccccc1)c1ccccc1 , according to its measured value.
Result string: top

Query string: Textbook exercise: identify the category of the compound given here, O=C(Cc1ccccc1)NC(C(=O)c1ccccc1)c1ccccc1 (stereo not drawn) , according to its measured value.
Result string: middle

Query string: Textbook exercise: identify the category of the compound given here, O=C1/C(=C\c2ccc(Cl)cc2Cl)Sc2scc(-c3ccc(O)c(O)c3)[n+]21 , according to its measured value.
Result string: middle

Query string: Textbook exercise: identify the category of the compound given here, [N-]=[N+]=NC1=C(C(=O)c2ccccc2)C(=O)c2cccc3cccc1c23 , according to its measured value.
Result string: middle

Query string: Textbook exercise: identify the category of the compound given here, Cc1cc(Cl)cc2c1NC(=O)C2(O)C/C(=N/NC(=O)CC#N)c1cccc([N+](=O)[O-])c1 (stereo not drawn) , according to its measured value.
Result string: bottom

Query string: Textbook exercise: identify the category of the compound given here, O=C(CCCl)Nc1cc2ccccc2oc1=O , according to its measured value.
Result string: middle

Query string: Textbook exercise: identify the category of the compound given here, CC(C)c1cccc2sc(NC(=O)C(=O)C(C#N)c3cccc4ccccc34)nc12 (stereo not drawn) , according to its measured value.
Result string: bottom

Query string: Textbook exercise: identify the category of the compound given here, CCC/C=C1/OC(=O)C2=C[C@H]3CC[C@]21[C@]1(OC(=O)C2=C1CCC=C2)[C@H]3CCC , according to its measured value.
Result string: top

Each recorded value in this set is attributed to PubChem BioAssay (NCI).
